measured_on: p110δ/p85 (Homo sapiens, UniProt O00329)
Sequence (O00329 whole entry, species assumed, one chain of several): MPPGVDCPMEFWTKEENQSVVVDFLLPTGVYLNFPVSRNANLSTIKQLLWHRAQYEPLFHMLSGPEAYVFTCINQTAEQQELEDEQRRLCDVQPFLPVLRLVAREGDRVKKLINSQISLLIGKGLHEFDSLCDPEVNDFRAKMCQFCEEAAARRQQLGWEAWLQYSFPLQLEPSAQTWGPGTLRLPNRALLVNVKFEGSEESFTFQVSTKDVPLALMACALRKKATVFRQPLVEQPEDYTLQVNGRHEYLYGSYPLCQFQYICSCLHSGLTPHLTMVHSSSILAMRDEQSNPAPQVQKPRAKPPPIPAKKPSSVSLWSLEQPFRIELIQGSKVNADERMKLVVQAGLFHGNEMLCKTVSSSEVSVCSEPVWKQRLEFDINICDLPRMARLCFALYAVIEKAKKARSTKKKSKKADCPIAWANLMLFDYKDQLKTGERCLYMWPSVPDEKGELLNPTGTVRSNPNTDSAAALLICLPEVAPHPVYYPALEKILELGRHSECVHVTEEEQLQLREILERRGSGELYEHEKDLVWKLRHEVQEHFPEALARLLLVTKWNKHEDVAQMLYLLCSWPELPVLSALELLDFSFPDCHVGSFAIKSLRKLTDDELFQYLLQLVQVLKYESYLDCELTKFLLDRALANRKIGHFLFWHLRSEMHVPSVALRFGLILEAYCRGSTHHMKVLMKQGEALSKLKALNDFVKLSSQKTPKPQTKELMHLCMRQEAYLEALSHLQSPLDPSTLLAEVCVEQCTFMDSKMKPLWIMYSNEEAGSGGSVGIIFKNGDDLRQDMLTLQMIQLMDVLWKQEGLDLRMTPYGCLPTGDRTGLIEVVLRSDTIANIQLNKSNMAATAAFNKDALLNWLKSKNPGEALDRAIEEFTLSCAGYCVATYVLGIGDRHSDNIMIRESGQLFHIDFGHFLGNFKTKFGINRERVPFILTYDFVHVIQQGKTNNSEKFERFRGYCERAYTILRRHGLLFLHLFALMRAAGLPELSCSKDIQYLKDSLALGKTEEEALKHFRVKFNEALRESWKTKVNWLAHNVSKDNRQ
procedure_details: Inhibition of isolated enzyme, PI 3-kinase p110δ/p85
Type: biochemical
conditions_used: recombinant enzyme, 100 μM ATP, average of two experiments
Counter-ions that a name gives are not always drawn.
measured_quantity: log10 of IC50 (log10 of the value in nM)
On a log10 scale: recorded IC50, unit nM.

INSERT INTO results (compound, measured_quantity, val) VALUES
  ('CC(C)c1ccc([N+](=O)[O-])cc1S(=O)(=O)N(C)N=Cc1cnn2ccc(C#N)cc12', 'log10 of IC50', 1.60);

Required: log10 of IC50, one value per compound below.
1. Cc1ccc([N+](=O)[O-])cc1Sc1nnc(-c2cnn3ccc(Br)cc23)o1
2. CN(N=Cc1cnn2ccc(C#N)cc12)S(=O)(=O)c1cc([N+](=O)[O-])ccc1NCc1cccnc1 [E65, hydrochloride]
3. CN(N=Cc1cnn2ccc(C#N)cc12)S(=O)(=O)c1cc([N+](=O)[O-])ccc1NCCN1CCOCC1 [E58, hydrochloride]
4. Cc1ccc(F)cc1S(=O)(=O)N(C)N=Cc1cnn2ccc(C#N)cc12
5. Cc1ccn2ncc(C=NN(C)S(=O)(=O)c3cc([N+](=O)[O-])ccc3C)c2c1 [E2]

1: 2.08; 2: 2.64; 3: 1.41; 4: 2.53; 5: 2.81

Recall the recorded log10 of IC50 for Cc1ccc(C#N)cc1S(=O)(=O)N(CCO)N=Cc1cnn2ccc(C#N)cc12 with p110δ/p85 (Homo sapiens, UniProt O00329) and state it.
1.40

* * *

Answer each item with its documented IC50.
measured_on: p110α/p85 (Homo sapiens, UniProt P42336)
Sequence (P42336 whole entry, species assumed): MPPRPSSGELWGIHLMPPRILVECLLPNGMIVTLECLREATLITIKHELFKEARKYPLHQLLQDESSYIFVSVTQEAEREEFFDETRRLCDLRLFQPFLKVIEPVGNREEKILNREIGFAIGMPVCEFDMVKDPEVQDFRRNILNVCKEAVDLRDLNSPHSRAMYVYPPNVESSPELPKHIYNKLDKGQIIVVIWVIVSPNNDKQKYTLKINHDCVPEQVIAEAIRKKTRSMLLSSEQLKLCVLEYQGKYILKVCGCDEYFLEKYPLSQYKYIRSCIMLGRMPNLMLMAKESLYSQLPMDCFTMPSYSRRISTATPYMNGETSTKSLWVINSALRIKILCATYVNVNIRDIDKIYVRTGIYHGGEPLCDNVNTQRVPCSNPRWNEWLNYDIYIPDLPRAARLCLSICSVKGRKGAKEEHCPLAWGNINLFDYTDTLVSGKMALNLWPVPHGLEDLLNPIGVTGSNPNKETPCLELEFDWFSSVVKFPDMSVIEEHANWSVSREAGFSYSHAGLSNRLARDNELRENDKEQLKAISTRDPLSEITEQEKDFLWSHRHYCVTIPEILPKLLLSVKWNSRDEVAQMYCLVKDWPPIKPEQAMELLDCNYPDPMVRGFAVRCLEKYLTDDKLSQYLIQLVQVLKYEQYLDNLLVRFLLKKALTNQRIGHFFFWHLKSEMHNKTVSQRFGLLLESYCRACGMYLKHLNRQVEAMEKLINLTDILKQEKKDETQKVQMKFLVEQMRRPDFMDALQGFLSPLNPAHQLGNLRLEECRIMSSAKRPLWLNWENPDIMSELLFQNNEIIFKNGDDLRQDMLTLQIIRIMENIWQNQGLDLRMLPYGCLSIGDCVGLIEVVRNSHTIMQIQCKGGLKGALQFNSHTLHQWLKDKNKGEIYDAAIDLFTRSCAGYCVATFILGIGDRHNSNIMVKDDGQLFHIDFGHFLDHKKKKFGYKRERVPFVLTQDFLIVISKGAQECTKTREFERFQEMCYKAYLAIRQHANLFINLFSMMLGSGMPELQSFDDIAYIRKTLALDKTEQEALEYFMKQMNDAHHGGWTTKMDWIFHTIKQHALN
Sequence (P27986 whole entry partner, species assumed): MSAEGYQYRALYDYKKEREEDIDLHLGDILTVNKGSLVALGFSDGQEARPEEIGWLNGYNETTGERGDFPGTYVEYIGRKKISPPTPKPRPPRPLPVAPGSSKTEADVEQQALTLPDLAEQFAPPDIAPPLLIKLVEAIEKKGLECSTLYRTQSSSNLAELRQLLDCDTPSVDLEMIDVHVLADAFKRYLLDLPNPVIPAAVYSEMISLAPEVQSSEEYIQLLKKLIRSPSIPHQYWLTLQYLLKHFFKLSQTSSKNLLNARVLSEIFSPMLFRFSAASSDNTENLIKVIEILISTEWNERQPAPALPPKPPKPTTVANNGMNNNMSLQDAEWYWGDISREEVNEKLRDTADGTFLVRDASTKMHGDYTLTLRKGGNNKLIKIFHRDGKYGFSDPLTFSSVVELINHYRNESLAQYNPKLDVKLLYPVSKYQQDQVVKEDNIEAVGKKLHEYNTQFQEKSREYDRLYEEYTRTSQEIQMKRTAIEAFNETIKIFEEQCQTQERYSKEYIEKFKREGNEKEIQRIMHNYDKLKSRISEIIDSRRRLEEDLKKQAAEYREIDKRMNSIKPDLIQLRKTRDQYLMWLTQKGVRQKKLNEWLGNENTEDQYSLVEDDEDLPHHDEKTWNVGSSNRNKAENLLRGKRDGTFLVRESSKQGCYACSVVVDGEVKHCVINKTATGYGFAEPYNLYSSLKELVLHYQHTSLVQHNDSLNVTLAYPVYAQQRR
procedure_details: Inhibition of isolated enzyme, PI 3-kinase p110α/p85
conditions_used: read-out: IC50 (nM) p110α; recombinant enzyme, 100 μM ATP, average of two experiments

I have 4 molecules here; please give me IC50 for each one.
1. COC(=O)c1ccn2ncc(C=NN(C)S(=O)(=O)c3cc([N+](=O)[O-])ccc3C)c2c1 [E6]
2. CN(N=Cc1cnn2ccc(C#N)cc12)C(=O)c1cccc([N+](=O)[O-])c1 [E82]
3. Cc1ccc([N+](=O)[O-])cc1S(=O)(=O)N(CCN1CCOCC1)N=Cc1cnn2ccc(C#N)cc12 [E47]
4. CN(C)c1ccc([N+](=O)[O-])cc1S(=O)(=O)N(C)N=Cc1cnn2ccc(Br)cc12 [E73]

1: 260 nM; 2: 21 nM; 3: 4.5 nM; 4: 3.4 nM

* * *

measured_on: p110α/p85 (Homo sapiens)
procedure_details: Inhibition of isolated enzyme, PI 3-kinase p110α/p85
conditions_used: read-out: IC50 (nM) p110α; recombinant enzyme, 100 μM ATP, average of two experiments
Where a name gives a salt, the structure may show the parent alone.
For each record, write down the corresponding IC50.
Answers are plain numbers, in nM.

Below: 5 molecules and their reported IC50.
INSERT INTO assay_data (molecule, val) VALUES
  ('Cc1ccn2nc(C)c(C=NN(C)S(=O)(=O)c3cc([N+](=O)[O-])ccc3C)c2c1', 870),
  ('Cc1ccc(F)cc1S(=O)(=O)N(C)N=Cc1cnn2ccc(C#N)cc12', 86),
  ('Cc1ccc([N+](=O)[O-])cc1S(=O)(=O)N(C)N=Cc1cnn2ccc(C3CC3)cc12', 330),
  ('CN(N=Cc1cnn2ccc(C#N)cc12)S(=O)(=O)c1cc([N+](=O)[O-])ccc1NCc1cccnc1 [E65, hydrochloride]', 9.6),
  ('O=[N+]([O-])c1cccc(S(=O)(=O)c2nc(-c3cnn4ccc(Br)cc34)cs2)c1', 790);

Answer for every listed entry: what is its IC50? The entries follow.
1. CN(C)CCN(C)c1ccc(C#N)cc1S(=O)(=O)N(C)N=Cc1cnn2ccc(C#N)cc12
2. Cc1ccc([N+](=O)[O-])cc1S(=O)(=O)N(C)N=Cc1cnn2ccccc12 [E1]
3. Cc1ccc([N+](=O)[O-])cc1S(=O)(=O)N(CCN(C)C)N=Cc1cnn2ccc(C#N)cc12

[10, 190, 30]

* * *

measured_on: p110β/p85 (Homo sapiens, UniProt P42338)
Sequence (P42338 whole entry, species assumed, one chain of several): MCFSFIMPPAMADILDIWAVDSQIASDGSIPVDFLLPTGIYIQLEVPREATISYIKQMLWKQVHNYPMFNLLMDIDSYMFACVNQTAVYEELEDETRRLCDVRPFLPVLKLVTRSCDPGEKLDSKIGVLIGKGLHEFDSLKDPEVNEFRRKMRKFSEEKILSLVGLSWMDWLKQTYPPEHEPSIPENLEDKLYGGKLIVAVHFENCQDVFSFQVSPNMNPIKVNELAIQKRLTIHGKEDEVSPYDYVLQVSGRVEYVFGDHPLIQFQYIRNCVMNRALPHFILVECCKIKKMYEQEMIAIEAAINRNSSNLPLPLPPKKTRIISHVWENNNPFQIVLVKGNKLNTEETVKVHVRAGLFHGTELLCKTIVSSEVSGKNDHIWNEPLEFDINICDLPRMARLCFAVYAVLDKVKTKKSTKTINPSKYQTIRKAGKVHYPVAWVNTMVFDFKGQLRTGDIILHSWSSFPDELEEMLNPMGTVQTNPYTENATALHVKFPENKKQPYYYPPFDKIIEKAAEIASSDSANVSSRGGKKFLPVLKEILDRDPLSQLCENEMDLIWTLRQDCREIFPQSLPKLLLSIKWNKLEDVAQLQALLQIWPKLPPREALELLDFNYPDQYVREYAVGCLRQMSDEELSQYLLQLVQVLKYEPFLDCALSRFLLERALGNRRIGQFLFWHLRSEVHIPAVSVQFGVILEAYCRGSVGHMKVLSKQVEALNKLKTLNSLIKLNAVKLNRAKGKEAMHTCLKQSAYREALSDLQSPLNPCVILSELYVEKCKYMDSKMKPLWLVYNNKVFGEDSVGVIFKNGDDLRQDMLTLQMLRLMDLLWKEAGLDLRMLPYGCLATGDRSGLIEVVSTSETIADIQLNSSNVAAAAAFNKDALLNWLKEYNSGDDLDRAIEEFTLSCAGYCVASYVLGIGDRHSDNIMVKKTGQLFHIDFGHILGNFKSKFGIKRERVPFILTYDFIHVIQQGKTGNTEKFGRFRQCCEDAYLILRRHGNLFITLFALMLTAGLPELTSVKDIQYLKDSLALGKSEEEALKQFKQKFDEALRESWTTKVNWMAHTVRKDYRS
procedure_details: Inhibition of isolated enzyme, PI 3-kinase p110β/p85
Assay type: biochemical
conditions_used: recombinant enzyme, 100 μM ATP, average of two experiments
Hi there, I'd appreciate the recorded IC50 for every entry that follows.

Guide cases for IC50, answers given:
INSERT INTO assay_data (test_smiles, val) VALUES
  ('CN(C)CCN(C)c1ccc(C#N)cc1S(=O)(=O)N(C)N=Cc1cnn2ccc(C#N)cc12', '360 nM'),
  ('Cc1ccc([N+](=O)[O-])cc1S(=O)(=O)NN=Cc1cnn2ccc(C#N)cc12', '620 nM'),
  ('COC(=O)c1ccn2ncc(C=NN(C)S(=O)(=O)c3cc([N+](=O)[O-])ccc3C)c2c1', '> 1000 nM'),
  ('Cc1ccc([N+](=O)[O-])cc1S(=O)(=O)n1ccc(-c2cnn3ccc(Br)cc23)n1', '> 1000 nM');

Proceeding to the next molecule to report its IC50.
Any idea what IC50 came out for CN(N=Cc1cnn2ccc(C#N)cc12)S(=O)(=O)c1cc([N+](=O)[O-])cnc1Cl on p110β/p85 (Homo sapiens, UniProt P42338)?
5800 nM

* * *

measured_on: p110β/p85 (Homo sapiens, UniProt P42338)
procedure_details: Inhibition of isolated enzyme, PI 3-kinase p110β/p85
Type: biochemical
conditions_used: recombinant enzyme, 100 μM ATP, average of two experiments
Counter-ions that a name gives are not always drawn.
Assignment: determine reported IC50 for the given molecules.
Give bare numbers, in nM.

Field: example entries. Status: answers known.
INSERT INTO measurements (molecule, measured_quantity, unit_string, val) VALUES
  ('CN(N=Cc1cnn2ccc(Br)cc12)S(=O)(=O)c1cc([N+](=O)[O-])ccc1OCCN1CCOCC1 [E74, hydrochloride]', 'IC50', 'nM', 2900),
  ('Cc1ccc([N+](=O)[O-])cc1S(=O)(=O)N(CCN1CCOCC1)N=Cc1cnn2ccc(C#N)cc12', 'IC50', 'nM', 230),
  ('Cc1ccc([N+](=O)[O-])cc1S(=O)(=O)N(CCN(C)C)N=Cc1cnn2ccc(C#N)cc12', 'IC50', 'nM', 200),
  ('Cc1ccc([N+](=O)[O-])cc1CN(C)N=Cc1cnn2ccc(C#N)cc12', 'IC50', 'nM', 48),
  ('Cc1ccc([N+](=O)[O-])cc1S(=O)(=O)N(C)N=Cc1cnn2ccc(I)cc12', 'IC50', 'nM', 720),
  ('CC(C)c1ccc([N+](=O)[O-])cc1S(=O)(=O)N(C)N=Cc1cnn2ccc(C#N)cc12', 'IC50', 'nM', 300),
  ('CN(C)c1ccc([N+](=O)[O-])cc1S(=O)(=O)N(C)N=Cc1cnn2ccc(Br)cc12', 'IC50', 'nM', 35),
  ('O=[N+]([O-])c1cccc(S(=O)(=O)c2nc(-c3cnn4ccc(Br)cc34)cs2)c1', 'IC50', 'nM', 5500);

Go through the list and state IC50 for each entry.
1. Cc1ccc(F)cc1S(=O)(=O)N(C)N=Cc1cnn2ccc(C#N)cc12
2. Cc1ccc(C#N)cc1S(=O)(=O)N(CCO)N=Cc1cnn2ccc(C#N)cc12
3. C#Cc1ccn2ncc(C=NN(C)S(=O)(=O)c3cc([N+](=O)[O-])ccc3C)c2c1
4. CN(N=Cc1cnn2ccc(C#N)cc12)S(=O)(=O)c1cc([N+](=O)[O-])ccc1NCc1cccnc1 [E65, hydrochloride]

[870, 23, 47, 580]

* * *

measured_on: p110α/p85 (Homo sapiens, UniProt P42336)
procedure_details: Inhibition of isolated enzyme, PI 3-kinase p110α/p85
conditions_used: read-out: IC50 (nM) p110α; recombinant enzyme, 100 μM ATP, average of two experiments
Structures can show the parent of a compound that is named as a salt.
measured_quantity: IC50

Worked examples follow.
INSERT INTO assay_data (compound, measured_on, val) VALUES
  ('CC(C)c1ccc([N+](=O)[O-])cc1S(=O)(=O)N(C)N=Cc1cnn2ccc(C#N)cc12 [E33]', 'p110α/p85 (Homo sapiens, UniProt P42336)', '1.8 nM'),
  ('CN(N=Cc1cnn2ccc(C#N)cc12)S(=O)(=O)c1cc([N+](=O)[O-])ccc1NCCc1c[nH]cn1 [E63, hydrochloride]', 'p110α/p85 (Homo sapiens, UniProt P42336)', '55 nM'),
  ('C#Cc1ccn2ncc(C=NN(C)S(=O)(=O)c3cc([N+](=O)[O-])ccc3C)c2c1 [E18]', 'p110α/p85 (Homo sapiens, UniProt P42336)', '1.4 nM');

Okay, now this compound:
Recorded IC50 for CN(N=Cc1cnn2ccc(Br)cc12)S(=O)(=O)c1cc([N+](=O)[O-])ccc1OCCN1CCOCC1 [E74, hydrochloride] , please?
32 nM
